Molecular target: Erythropoietin receptor (Homo sapiens)
Sequence (whole entry): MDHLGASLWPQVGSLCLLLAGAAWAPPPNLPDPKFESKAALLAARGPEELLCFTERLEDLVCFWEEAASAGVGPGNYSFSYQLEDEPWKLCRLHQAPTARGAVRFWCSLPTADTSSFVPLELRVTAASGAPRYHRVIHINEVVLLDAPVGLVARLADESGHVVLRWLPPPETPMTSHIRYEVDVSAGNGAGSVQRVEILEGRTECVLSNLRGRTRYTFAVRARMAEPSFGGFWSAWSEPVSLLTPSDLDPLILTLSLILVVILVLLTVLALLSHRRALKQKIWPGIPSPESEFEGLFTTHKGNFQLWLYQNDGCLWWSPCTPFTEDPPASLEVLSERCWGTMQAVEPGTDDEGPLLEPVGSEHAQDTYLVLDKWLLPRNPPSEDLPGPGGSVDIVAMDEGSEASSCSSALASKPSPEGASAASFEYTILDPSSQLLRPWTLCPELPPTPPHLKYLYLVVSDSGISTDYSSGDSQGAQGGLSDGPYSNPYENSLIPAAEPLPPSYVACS
Assay: Compound was evaluated for inhibition of [125I]EPO binding to Erythropoietin receptor (EBP) at a concentration of 50 uM
experimental.readout: inhibition
Reply with the number, then its unit.

Examples from the recorded data:
O=C(O)CC[C@H](C(=O)NCCOCCOCCNC(=O)[C@H](CCC(=O)O)N(Cc1ccc(OCc2ccccc2)cc1)Cc1ccc(OCc2ccccc2)cc1)N(Cc1ccc(OCc2ccccc2)cc1)Cc1ccc(OCc2ccccc2)cc1	79%
O=C(O)CC[C@@H](C(=O)O)N(C/C=C/c1cccc(Oc2ccccc2)c1)C/C=C/c1cccc(Oc2ccccc2)c1	78%
CC(C)(C)OC(=O)CC[C@H](NC/C=C/c1cccc(Oc2ccccc2)c1)C(=O)O	0%

Record inhibition for all entries; do not skip any.
1. O=C(O)CC[C@H](NC/C=C/c1cccc(Oc2ccccc2)c1)C(=O)O
2. COC(=O)[C@H](COC(C)(C)C)NC/C=C/c1cccc(Oc2ccccc2)c1
3. COC(=O)[C@H](CCCCN)N(Cc1ccc(OCc2ccccc2)cc1)Cc1ccc(OCc2ccccc2)cc1

-- reply
1. 0%
2. 8%
3. 54%

Record inhibition for all entries; do not skip any.
1. COC(=O)[C@H](CCC(=O)O)NC/C=C/c1cccc(Oc2ccccc2)c1
2. COC(=O)[C@H](CCCCN)N(Cc1cccc(OCc2ccccc2)c1)Cc1cccc(OCc2ccccc2)c1
3. COC(=O)[C@H](CO)N(C/C=C/c1cccc(Oc2ccccc2)c1)C/C=C/c1cccc(Oc2ccccc2)c1
4. O=C(O)CCCC(=O)NCCCC[C@H](C(=O)NCCOCCOCCNC(=O)[C@H](CCCCNC(=O)CCCC(=O)O)N(Cc1ccc(OCc2ccccc2)cc1)Cc1ccc(OCc2ccccc2)cc1)N(Cc1ccc(OCc2ccccc2)cc1)Cc1ccc(OCc2ccccc2)cc1
5. COC(=O)[C@H](COC(C)(C)C)N(C/C=C/c1cccc(Oc2ccccc2)c1)C/C=C/c1cccc(Oc2ccccc2)c1

-- reply
["6%", "59%", "57%", "88%", "0%"]
